Hey, just so you know, these numbers are from patent EP1064284B1.

test: Absolute oral bioavailability (oral/IV) in Beagle dogs; assay type: in vivo; details: dog, in vivo; Beagle dogs, fasting conditions, oral relative to intravenous route; read-out: Absolute bioavailability oral/IV in Beagle dogs (fasting conditions) 1 < gastric pH < 2
// reported bioavailability for each item listed

Molecule: COc1ccc2[nH]c3c(c2c1)CCN1C(=O)CCC=C31 [EXAMPLE A, reference compound]
bioavailability: < 1%

Molecule: COc1ccc2[nH]c3c(c2c1)CCN1C(=O)CCCC31 (centres unmarked) [EXAMPLE B, reference compound]
bioavailability: < 5%

###

experiment: Stability in acidic medium (hydrolysis of cycle A in pH buffers, HPLC); assay type: physicochemical; settings: pH=3 buffer, 30 µM in 5 ml, stirred 15 minutes at 37°C
Classify: met when Hydrolysis rate (%) pH=3 is strictly less than 9%; not met when Hydrolysis rate (%) pH=3 is not.

Compound: CCC1CCC(=O)N2CCc3c([nH]c4ccc(OC)cc34)C12 (stereo not shown) [Example 8]
Class name: met
--
Compound: CCC1=C2c3[nH]c4ccc(OC)cc4c3CCN2C(=O)CC1 [Example 1]
Class name: met
--
Compound: COc1ccc2[nH]c3c(c2c1)CCN1C(=O)CCCC31 (stereo not shown) [EXAMPLE B, reference compound]
Class name: not met
--
Compound: CCC1=C2c3[nH]c4ccc(OC)cc4c3CCN2C(=S)CC1 [Example 7]
Class name: met
--
Compound: COc1ccc2[nH]c3c(c2c1)CCN1C(=S)CCC(c2ccccc2)=C31 [Example 11]
Class name: not met
--
Compound: COc1ccc2[nH]c3c(c2c1)CCN1C(=O)CCC(c2ccccc2)=C31 [Example 4]
Class name: met
--
Compound: COc1ccc2[nH]c3c(c2c1)CCN1C(=O)CCC=C31 [EXAMPLE A, reference compound]
Class name: not met
